Numbers sourced from the supplement of paper PMC10567573.

For each entry below, report its protein stability index value.
B1: ACBD3 (parent)
chain: YVASHKIEKEEQEKKRKEEEERRR

- Variants of: B1
- PROCEDURE_SUMMARY: protein stability index of a GFP-peptide fusion (GPS, HEK-293T) (PSI 1-6); higher = more stable;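 also: lentivirally expressed fusions sorted by FACS into six bins by GFP to DsRed ratio, PSI derived from sequencing read proportions per bin multiplied by bin number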
- CONDITION_DESCRIPTION: c terminus: a fixed tail appended

Consider the reported protein stability index for these variants:
INSERT INTO results (variant_notation, endpoint_result) VALUES
  ('V2G', 5.36),
  ('R22A', 2.45),
  ('H5G', 1.92),
  ('E10P', 1.78),
  ('S4D', 3.95),
  ('R16E', 3.75),
  ('Y1L', 5.56),
  ('H5T', 3);

Please supply protein stability index for each of the following items, keeping them in order.
1. S4Y
2. K15S
3. I7P

Reply |
1: 2.49; 2: 2.79; 3: 3.35
